Item-by-item account of Rate in the presence of MSAD
assay.name: Coupled enzyme assay (ADH, with and without MSAD): hydratase and hydratase/decarboxylase activity and product profile of Cg10062 and variants
Type: biochemical
condition.context: ACA 0.5 mM, pH 8; enzyme final concentration differs per variant (0.025-1.50 mg mL^−1), rates not directly comparable
Procedure: Steady-state kinetics were carried out using a Molecular Devices SpectraMax iD3 multi-mode microplate reader and Shimadzu UV2600 spectrophotometer. All assays were carried out in triplicate at 25° C. in 100 mM sodium phosphate pH 8.0 with a final volume of 200 μL, unless otherwise specified. The reduction of acetaldehyde by NADH-dependent alcohol dehydrogenase (ADH) was monitored by following the oxidation of NADH at 340 nm (ε=6220 M^−1 cm^−1). […]
Numeric answer only, unit µM/min assumed.

| molecule | endpoint.value |
| --- | --- |
| H28A: Cg10062 variant with H28A mutation, SEQ ID NO: 25 and 63 (protein, Cg10062(H28A) from Corynebacterium glutamicum codon-optimized for Escherichia coli) PTYTCWSQRIRISREAKQRIAEAITDAAHELAHAPKYLVQVIFNEVEPDSYFIAAQSASENHIWVQATIRSGRTEKQKEELLLRLTQEIALILGIPNEEVWVYITEIPGSNMTEYGRLLMEPGEEEKWFNSLPEGLRERLTELEGSSE | 12 |

Consider now this further molecule.
Record request: Rate in the presence of MSAD value, item E114A: Cg10062 variant with E114A mutation, SEQ ID NO: 32 and 70 (protein, Cg10062(E114A) from Corynebacterium glutamicum codon-optimized for Escherichia coli) PTYTCWSQRIRISREAKQRIAEAITDAHHELAHAPKYLVQVIFNEVEPDSYFIAAQSASENHIWVQATIRSGRTEKQKEELLLRLTQEIALILGIPNEEVWVYITEIPGSNMTAYGRLLMEPGEEEKWFNSLPEGLRERLTELEGSSE
15
